Biological target: T1, human CD123 (human, UniProt P26951 19-305, limits assumed)
T1 construct: Construct on the chip is not described; also called CD123 chip
T1 sequence (looked up): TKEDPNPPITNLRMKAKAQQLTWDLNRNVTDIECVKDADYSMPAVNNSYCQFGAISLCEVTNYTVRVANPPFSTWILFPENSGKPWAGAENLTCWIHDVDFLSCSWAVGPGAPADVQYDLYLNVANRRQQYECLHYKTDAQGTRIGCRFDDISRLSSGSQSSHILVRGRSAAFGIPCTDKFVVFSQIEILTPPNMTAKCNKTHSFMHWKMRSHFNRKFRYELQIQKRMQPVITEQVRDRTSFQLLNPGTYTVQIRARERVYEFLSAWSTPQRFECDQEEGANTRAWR
Assay: off-rate screen of Fab-His on a Biacore CD123 chip (Example 3), relative to 7G3 H1L1 Fab
reportedMetric: Fold improvement in off-rate vs. H1L1 (fold)
Give a bare numeral; the unit fold is implied.

Fill in the blank: the reported Fold improvement in off-rate vs. H1L1 of 13855 7G3_H1_L1.57_Fab_His (Fab, V domains shown, also called XENP13855) VH: QVQLVQSGAEVKKPGASVKVSCKASGYTFTDYYMKWVRQAPGQSLEWMGDIIPSNGATFYNQKFQGRVTMTVDRSTSTAYMELSSLRSEDTAVYYCTRSHLLRASWFAYWGQGTLVTVSS VL: DFVMTQSPDSLAVSLGERATINCKSSQSLLNTGNQKNYLTWYQQKPGQPPKLLIYWASTRESGVPDRFTGSGSGTDFTLTISSLQAEDVAVYYCQNDYSYPYTFGGGTKLEIKR is ____. 0.84

Report Fold improvement in off-rate vs. H1L1 for 13738 7G3_H1.89_L1_Fab_His (Fab, V domains shown, also called XENP13738; copies: 1 + 1) VH: QVQLVQSGAEVKKPGASVKVSCKASGYTFTDYYMKWVRQAPGQSLEWIGDIIPSNGATFYNQKFQGRVTMTVDRSTSTAYMELSSLRSEDTAVYYCTRSHLLRASWFAYWGQGTLVTVSS VL: DFVMTQSPDSLAVSLGERATINCKSSQSLLNSGNQKNYLTWYQQKPGQPPKLLIYWASTRESGVPDRFTGSGSGTDFTLTISSLQAEDVAVYYCQNDYSYPYTFGGGTKLEIKR please. 1.29

Consider the binder 13740 7G3_H1.91_L1_Fab_His (Fab, V domains shown, also called XENP13740; copies: 1 + 1) VH: QVQLVQSGAEVKKPGASVKVSCKASGYTFTDYYMKWVRQAPGQSLEWMGDIIPSNGATFYNQKFQGRVTMTVDRSTSTAYMHLSSLRSEDTAVYYCTRSHLLRASWFAYWGQGTLVTVSS VL: DFVMTQSPDSLAVSLGERATINCKSSQSLLNSGNQKNYLTWYQQKPGQPPKLLIYWASTRESGVPDRFTGSGSGTDFTLTISSLQAEDVAVYYCQNDYSYPYTFGGGTKLEIKR and give its measured Fold improvement in off-rate vs. H1L1. 1.04
